Entries and their measured IC50 follow.
Molecular target: JAK1 (Homo sapiens, UniProt P23458)
Construct: 5 μl of catalytic domain recombinant Kinase enzyme+Tyr peptide substrate (Invitrogen, CA)
Sequence (P23458 875-1153 limits assumed): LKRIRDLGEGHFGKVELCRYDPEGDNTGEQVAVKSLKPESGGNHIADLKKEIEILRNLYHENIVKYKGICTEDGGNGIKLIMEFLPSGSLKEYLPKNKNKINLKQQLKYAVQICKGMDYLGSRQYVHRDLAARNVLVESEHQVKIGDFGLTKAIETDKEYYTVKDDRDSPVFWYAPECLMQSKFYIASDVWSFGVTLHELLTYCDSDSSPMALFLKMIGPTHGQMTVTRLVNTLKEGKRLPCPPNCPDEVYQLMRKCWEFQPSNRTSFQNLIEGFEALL
Test: Z'-LYTE kinase assay JAK1
recorded.endpoint: IC50

[[record]]
smiles_string = "CCC(=O)N1CC(c2ccc(Nc3cc(NCc4cccc5[nH]ccc45)c(C(N)=O)cn3)cc2)C1"
target_system = "JAK1 (Homo sapiens, UniProt P23458)"
experimental_result = "0.01 to 0.1 µM"

[[record]]
smiles_string = "NC(=O)c1cnc(Nc2ccc(C3CCOCC3)cc2)cc1NCC1CCCC1"
target_system = "JAK1 (Homo sapiens, UniProt P23458)"
experimental_result = "> 1 µM"

[[record]]
smiles_string = "Cc1cc(Nc2cc(NCc3cccc4[nH]ccc34)c(C(N)=O)cn2)ccc1C(=O)N1CCOCC1"
target_system = "JAK1 (Homo sapiens, UniProt P23458)"
experimental_result = "0.001 to 0.01 µM"

[[record]]
smiles_string = "NC(=O)c1cnc(Nc2cccc(Cl)c2)cc1NCc1cncc(F)c1"
target_system = "JAK1 (Homo sapiens, UniProt P23458)"
experimental_result = "> 1 µM"

[[record]]
smiles_string = "COc1ccc(Nc2cc(NC[C@@H]3CCCN(C(=O)N(C)C)C3)c(C(N)=O)cn2)cc1"
target_system = "JAK1 (Homo sapiens, UniProt P23458)"
experimental_result = "> 1 µM"

[[record]]
smiles_string = "COc1ccc(Nc2cc(NCc3ccncn3)c(C(N)=O)cn2)cc1"
target_system = "JAK1 (Homo sapiens, UniProt P23458)"
experimental_result = "> 1 µM"

[[record]]
smiles_string = "CN(C)C(=O)N1CCC(Nc2cc(Nc3ccc(C4CCOCC4)cc3)ncc2C(N)=O)CC1"
target_system = "JAK1 (Homo sapiens, UniProt P23458)"
experimental_result = "> 1 µM"

[[record]]
smiles_string = "CN(C)C(=O)c1cccc(Nc2cc(NCc3ccccc3)c(C(N)=O)cn2)c1"
target_system = "JAK1 (Homo sapiens, UniProt P23458)"
experimental_result = "0.1 to 1 µM"


* * *

Biological target: JAK2 (Homo sapiens, UniProt O60674)
Construct: 5 μl of catalytic domain recombinant Kinase enzyme+Tyr peptide substrate (Invitrogen, CA)
Sequence (O60674 849-1124 limits assumed): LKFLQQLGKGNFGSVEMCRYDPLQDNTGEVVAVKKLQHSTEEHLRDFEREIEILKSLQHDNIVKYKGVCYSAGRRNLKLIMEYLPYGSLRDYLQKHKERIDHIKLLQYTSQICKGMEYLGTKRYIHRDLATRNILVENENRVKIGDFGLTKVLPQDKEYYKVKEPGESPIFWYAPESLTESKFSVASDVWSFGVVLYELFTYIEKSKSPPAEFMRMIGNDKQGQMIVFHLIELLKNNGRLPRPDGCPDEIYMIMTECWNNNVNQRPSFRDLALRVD
Experiment: Z'-LYTE kinase assay JAK2
pIC50: −log10 of the molar value.
recorded.endpoint: pIC50

[[record]]
compound = "COC(=O)N(C)c1ccc(Nc2cc(NCc3cccc4cc[nH]c34)c(C(N)=O)cn2)cc1 [Example 482]"
target_system = "JAK2 (Homo sapiens, UniProt O60674)"
experimental_result = "< 6.00"

[[record]]
compound = "NC(=O)c1cnc(Nc2cccc(C3CCOCC3)c2)cc1NCc1cc(F)ccc1F [Example 207]"
target_system = "JAK2 (Homo sapiens, UniProt O60674)"
experimental_result = "7.00 to 8.00"

[[record]]
compound = "COc1ccc(Nc2cc(NCc3cncnc3)c(C(N)=O)cn2)cc1 [Example 286]"
target_system = "JAK2 (Homo sapiens, UniProt O60674)"
experimental_result = "< 6.00"

[[record]]
compound = "NC(=O)c1cnc(Nc2ccc(C3CCOCC3)cc2)cc1NCc1ccccn1 [Example 174]"
target_system = "JAK2 (Homo sapiens, UniProt O60674)"
experimental_result = "6.00 to 7.00"

[[record]]
compound = "CN(C)CC(C)(C)CNc1cc(Nc2ccc(C3CCOCC3)cc2)ncc1C(N)=O [Example 171]"
target_system = "JAK2 (Homo sapiens, UniProt O60674)"
experimental_result = "< 6.00"

[[record]]
compound = "CC(=O)N1CCN(c2ccc(Nc3cc(NCc4cccs4)c(C(N)=O)cn3)cc2)CC1 [Example 122]"
target_system = "JAK2 (Homo sapiens, UniProt O60674)"
experimental_result = "6.00 to 7.00"

[[record]]
compound = "NC(=O)c1cnc(Nc2ccc(OCC(=O)N3CCOCC3)cc2)cc1NC1(c2ccccc2)CC1 [Example 133]"
target_system = "JAK2 (Homo sapiens, UniProt O60674)"
experimental_result = "6.00 to 7.00"

[[record]]
compound = "NC(=O)c1cnc(Nc2ccc(C3CCOCC3)cc2)cc1NCC1(O)CCCC1 [Example 141]"
target_system = "JAK2 (Homo sapiens, UniProt O60674)"
experimental_result = "6.00 to 7.00"

[[record]]
compound = "CN(C)C(=O)c1ccc(Nc2cc(NCc3cccc(-n4cccn4)c3)c(C(N)=O)cn2)cc1 [Example 422]"
target_system = "JAK2 (Homo sapiens, UniProt O60674)"
experimental_result = "6.00 to 7.00"

[[record]]
compound = "NC(=O)c1cnc(Nc2ccc(C3CCOCC3)cc2)cc1NCc1cccc(F)c1 [Example 143]"
target_system = "JAK2 (Homo sapiens, UniProt O60674)"
experimental_result = "< 6.00"

[[record]]
compound = "COC(=O)N(C)c1ccc(Nc2cc(NCc3cncc(F)c3)c(C(N)=O)cn2)cc1 [Example 479]"
target_system = "JAK2 (Homo sapiens, UniProt O60674)"
experimental_result = "6.00 to 7.00"

[[record]]
compound = "N#CCOc1ccc(Nc2cc(NCc3ccccc3)c(C(N)=O)cn2)cc1 [Example 384]"
target_system = "JAK2 (Homo sapiens, UniProt O60674)"
experimental_result = "6.00 to 7.00"

[[record]]
compound = "CC(=O)N1CCN(c2ccc(Nc3cc(NC4Cc5ccccc5C4)c(C(N)=O)cn3)cc2)CC1 [Example 253]"
target_system = "JAK2 (Homo sapiens, UniProt O60674)"
experimental_result = "6.00 to 7.00"

[[record]]
compound = "COCC(=O)N1CC(c2ccc(Nc3cc(NCc4cccc5ccsc45)c(C(N)=O)cn3)cc2)C1 [Example 495]"
target_system = "JAK2 (Homo sapiens, UniProt O60674)"
experimental_result = "7.00 to 8.00"

[[record]]
compound = "CC(=O)N1CC(c2ccc(Nc3cc(NCc4ccccc4)c(C(N)=O)cn3)cc2)C1 [Example 324]"
target_system = "JAK2 (Homo sapiens, UniProt O60674)"
experimental_result = "6.00 to 7.00"

[[record]]
compound = "COCC(=O)N1CCC[C@H](CNc2cc(Nc3ccc(C(=O)N(C)C)cc3)ncc2C(N)=O)C1 [Example 266]"
target_system = "JAK2 (Homo sapiens, UniProt O60674)"
experimental_result = "< 6.00"

[[record]]
compound = "NC(=O)c1cnc(Nc2cccc(N3CCCCC3)c2)cc1NCc1cccc(F)c1 [Example 68]"
target_system = "JAK2 (Homo sapiens, UniProt O60674)"
experimental_result = "6.00 to 7.00"


meta.source: patent US20150353495A1
